Provide the recorded self-cleavage for the entries that follow.
B1: LINE1-full (parent)
chain: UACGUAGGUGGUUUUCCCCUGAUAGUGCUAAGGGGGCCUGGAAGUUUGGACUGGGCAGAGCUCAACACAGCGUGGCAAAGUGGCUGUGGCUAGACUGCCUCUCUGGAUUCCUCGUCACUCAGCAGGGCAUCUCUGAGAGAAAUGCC

# Variants of: B1
# Protocol summary: self-cleavage, relative activity (ratio to wild type); higher = more cleavage; in vitro, sequencing; the parent is a self-cleaving ribozyme
One number for each entry.

Variant spec: A57C G97U
Test value: 0.04

Hi team, please reply with self-cleavage for each item in this list.
1. A43G U115C
2. U13C U81A
3. U9C U100C
4. A43U G54A
5. A57G C128G

1. 1.52
2. 1.56
3. 1.51
4. 0.56
5. 0.55

Would you mind giving self-cleavage for every variant in the list below?
1. U39A U108C
2. C113U U134C
3. A64U A94C

[1.24, 0.97, 0.05]

Below is a list of variants. For each, state its recorded self-cleavage.
1. U26C G74A
2. G7U U14C

[1.17, 1.39]

Return reported self-cleavage values for all items listed beneath this line.
1. U14C A124G
2. G105U U109C
3. A124U U130C
4. U39C A117G

1. 1.09
2. 1.93
3. 1.66
4. 1.37

May I ask what self-cleavage has been recorded for U47C U96A ?
0.1
